# experimental-target: purified human FAP antigen (human, UniProt Q12884 26-760, limits assumed)
# measurement-protocol: ELISA, plate coated with purified human FAP antigen (FIG. 56F-56G)
pKd: −log10 of the molar value.
Listing of entries alongside the reported pKd.
experimental-readout: pKd

* IAB16C3-26 (other) EIVLTQSPGTLSLSPGERATLSCRASQSVSRSYLAWYQQKPGQAPRLLIIGASTRATGIPDRFSGSGSGTDFTLTISRLEPEDFAVYYCQQGQVIPPTFGQGTKVEIKGGGSGGGGEVQLLESGGGLVQPGGSLRLSCAASGFTFSSHAMSWVRQAPGKGLEWVSAIWASGEQYYADSVKGRFTISRDNSKNTLYLQMNSLRAEDTAVYYCAKGWLGNFDYWGQGTLVTVSSGGCPPCPPC | ~9.00
* IAB16C1-24 (other) EIVLTQSPGTLSLSPGERATLSCRASQSVSRSYLAWYQQKPGQAPRLLIIGASTRATGIPDRFSGSGSGTDFTLTISRLEPEDFAVYYCQQGQVIPPTFGQGTKVEIKSGGGGEVQLLESGGGLVQPGGSLRLSCAASGFTFSSHAMSWVRQAPGKGLEWVSAIWASGEQYYADSVKGRFTISRDNSKNTLYLQMNSLRAEDTAVYYCAKGWLGNFDYWGQGTLVTVSSGGCPPCPPC | ~9.00
* IAB16C4-17 (other) QVQLVQSGAEVKKPGASVKVSCKTSRYTFTEYTIHWVRQAPGQRLEWIGGINPNNGIPNYNQKFKGRVTITVDTSASTAYMELSSLRSEDTAVYYCARRRIAYGYDEGHAMDYWGQGTLVTVSSGGGSGGGGDIVMTQSPDSLAVSLGERATINCKSSQSLLYSRNQKNYLAWYQQKPGQPPKLLIFWASTRESGVPDRFSGSGFGTDFTLTISSLQAEDVAVYYCQQYFSYPLTFGQGTKVEIKGGCPPCPPC | ~9.00
